percent effect (mortality or growth inhibition) at 200 ppm values, listed per item
System: Diabrotica Balteata (Corn Root Worm)
Experiment: Activity against Diabrotica balteata (corn root worm), maize sprouts sprayed
Assay type: in vivo
Conditions: 96 h, application rate of 200 ppm, L2 larvae, 4 days after infestation, read-out: effect in at least one of the two categories (mortality or growth inhibition)

For orientation, consider the following solved cases.
molecule | result
CCS(=O)(=O)c1cc(C(F)(F)F)cnc1-c1cc2c(cn1)N(CC(F)(F)C(F)(F)F)C(=O)OC2 | ≥ 80%
CCS(=O)(=O)c1cc(C2(C#N)CC2)cnc1-c1cc2c(cn1)N(CC(F)(F)C(F)(F)F)C(=O)CC2 | ≥ 80%
CCS(=O)(=O)c1cc(C(F)(F)F)cnc1-c1cc2c(cn1)N(CC(F)(F)C(F)(F)F)C(=O)CC2 | ≥ 80%
CCS(=O)(=O)c1cc(Oc2ccccn2)cnc1-c1cc2c(cn1)N(CC(F)(F)C(F)(F)F)C(=O)CC2 | ≥ 80%

// switching to the query molecule
For reference, reported percent effect (mortality or growth inhibition) at 200 ppm for `CCS(=O)(=O)c1cc(C(C)(C)C#N)cnc1-c1cc2c(cn1)N(CC(F)(F)C(F)(F)F)C(=O)OC2` stands at ≥ 80%
